meta.source: the supplement of paper PMC9112550

- Tested on: Escherichia coli TOP10
- METHOD: shrunken log2 fold change of peptide-encoding DNA abundance (4.5 h post-induction vs induction); higher = less antimicrobial activity (less host growth inhibition)
- CONDITION DESCRIPTION: time post-induction: 4.5 h; library: site-saturation at positions 5, 18, 19, 20
Output 1 (yes) for shrunken log2 fold change not less than 0.01; output 0 (no) otherwise.

| RECORD SEQUENCE | CLASSIFICATION |
| --- | --- |
| RRIRLRPPRLPRPRPRPRRKPRP | 0 (no) |
| RRIRARPPRLPRPRPRPSRWPRP | 1 (yes) |
| RRIRWRPPRLPRPRPRPWAEPRP | 1 (yes) |
| RRIRFRPPRLPRPRPRPTHAPRP | 1 (yes) |
| RRIRQRPPRLPRPRPRPTNQPRP | 1 (yes) |
| RRIRIRPPRLPRPRPRPSFLPRP | 0 (no) |
| RRIRRRPPRLPRPRPRPEQEPRP | 1 (yes) |

* * *

- Tested on: Escherichia coli TOP10
- METHOD: shrunken log2 fold change of peptide-encoding DNA abundance (4.5 h post-induction vs induction); higher = less antimicrobial activity (less host growth inhibition)
- CONDITION DESCRIPTION: time post-induction: 4.5 h; library: site-saturation at positions 5, 18, 19, 20
Think of 0.07 as a floor: if shrunken log2 fold change stands on it or above, it is 1; beneath it, 0.

| RECORD SEQUENCE | TARGET UNDER TEST | CLASSIFICATION |
| --- | --- | --- |
| RRIRQRPPRLPRPRPRPNQRPRP | Escherichia coli TOP10 | 1 |
| RRIRRRPPRLPRPRPRPHLPPRP | Escherichia coli TOP10 | 1 |
| RRIRLRPPRLPRPRPRPSCVPRP | Escherichia coli TOP10 | 0 |
| RRIRHRPPRLPRPRPRPPFGPRP | Escherichia coli TOP10 | 0 |
| RRIRVRPPRLPRPRPRPGSCPRP | Escherichia coli TOP10 | 1 |
| RRIRERPPRLPRPRPRPDWCPRP | Escherichia coli TOP10 | 0 |
| RRIRDRPPRLPRPRPRPDMFPRP | Escherichia coli TOP10 | 0 |

* * *

- System: Escherichia coli TOP10;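 further: peptides expressed intracellularly from a pBAD plasmid library in pooled LB shake-flask culture, induced with 0.3% L-arabinose, DNA abundance read by NGS, three biological replicates, DESeq2 with apeglm shrinkage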
- METHOD: shrunken log2 fold change of peptide-encoding DNA abundance (4.5 h post-induction vs induction); higher = less antimicrobial activity (less host growth inhibition)
- CONDITION DESCRIPTION: time post-induction: 4.5 h; library: site-saturation at positions 5, 18, 19, 20
Recorded shrunken log2 fold change determines the group label, using A = under -0.1, B = from -0.1 up to 0.1, C = 0.1 and over

| RECORD SEQUENCE | CLASSIFICATION |
| --- | --- |
| RRIRNRPPRLPRPRPRPTKKPRP | B |
| RRIRMRPPRLPRPRPRPHSNPRP | B |
| RRIRCRPPRLPRPRPRPDERPRP | A |
| RRIRWRPPRLPRPRPRPPMGPRP | C |
| RRIRDRPPRLPRPRPRPVFSPRP | C |
| RRIRRRPPRLPRPRPRPQFFPRP | A |
| RRIRGRPPRLPRPRPRPDQCPRP | C |
| RRIRVRPPRLPRPRPRPDIIPRP | A |
| RRIRARPPRLPRPRPRPEWLPRP | C |
| RRIRSRPPRLPRPRPRPRYGPRP | B |
| RRIRERPPRLPRPRPRPKEGPRP | A |
| RRIRTRPPRLPRPRPRPQLSPRP | C |
| RRIRVRPPRLPRPRPRPVVEPRP | A |
| RRIRRRPPRLPRPRPRPFIMPRP | A |
| RRIRGRPPRLPRPRPRPMGCPRP | B |
